Target: human RIP1 (Homo sapiens)
Sequence (Q13546 whole entry): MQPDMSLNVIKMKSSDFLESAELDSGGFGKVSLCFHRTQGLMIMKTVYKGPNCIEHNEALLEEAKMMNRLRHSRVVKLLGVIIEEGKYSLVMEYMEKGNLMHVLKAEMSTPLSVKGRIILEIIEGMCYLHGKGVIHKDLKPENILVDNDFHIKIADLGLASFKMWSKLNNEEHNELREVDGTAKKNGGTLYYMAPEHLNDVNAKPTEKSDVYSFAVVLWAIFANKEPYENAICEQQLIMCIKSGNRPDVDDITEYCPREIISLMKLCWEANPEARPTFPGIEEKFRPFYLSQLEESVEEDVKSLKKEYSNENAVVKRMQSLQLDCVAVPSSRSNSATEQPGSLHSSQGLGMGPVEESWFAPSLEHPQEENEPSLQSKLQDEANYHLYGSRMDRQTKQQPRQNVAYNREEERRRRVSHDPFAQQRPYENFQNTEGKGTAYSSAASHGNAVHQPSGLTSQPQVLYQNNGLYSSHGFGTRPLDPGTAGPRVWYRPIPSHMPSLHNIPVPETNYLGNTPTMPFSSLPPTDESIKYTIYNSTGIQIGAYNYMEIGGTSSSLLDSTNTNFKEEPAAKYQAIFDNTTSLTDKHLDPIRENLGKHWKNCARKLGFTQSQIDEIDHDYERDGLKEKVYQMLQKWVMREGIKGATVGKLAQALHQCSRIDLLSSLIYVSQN
The entries below are paired with their reported Ki.

{"Compound": "CN1C(=O)[C@@H](NC(=O)c2cn(Cc3ccccc3)cn2)COc2cc3occc3cc21 [RIP1-120]", "Ki [µM]": 0.0207}
{"Compound": "CN1C(=O)[C@@H](NC(=O)c2nnn(Cc3ccccc3)n2)COc2cc3nccnc3cc21 [RIP1-131]", "Ki [µM]": 0.0286}
{"Compound": "CN1C(=O)[C@@H](NC(=O)c2nnc(Cc3ccccc3)o2)COc2cc3[nH]nnc3cc21 [RIP1-153]", "Ki [µM]": 0.0128}
{"Compound": "CN1C(=O)[C@@H](NC(=O)c2nnc(Cc3ccccc3)o2)COc2cc3nccnc3cc21 [RIP1-134]", "Ki [µM]": 0.0219}
{"Compound": "COc1ncnc2cc3c(cc12)N(C)C(=O)[C@@H](NC(=O)c1cn(Cc2ccccc2)cn1)CO3 [RIP1-147]", "Ki [µM]": 0.0165}
{"Compound": "CN1C(=O)[C@@H](NC(=O)c2ncn(Cc3ccccc3)n2)COc2cc3[nH]nnc3cc21 [RIP1-136]", "Ki [µM]": 0.0178}
{"Compound": "CN1C(=O)[C@@H](NC(=O)c2cn(Cc3ccccc3)nn2)COc2cc3[nH]nnc3cc21 [RIP1-138]", "Ki [µM]": 0.0198}
{"Compound": "CN1C(=O)[C@@H](NC(=O)c2nnn(Cc3ccccc3)n2)COc2cc3[nH]nnc3cc21 [RIP1-139]", "Ki [µM]": 0.0203}

----------
The entries below are paired with their reported IC50.
Tested on: Jurkat (FADD−/−) cells
Assay: Inhibition of TNF-induced programmed Jurkat (FADD−/−) cell necrosis (Cell Titer-Glo)
Format: cell-based, human
Details: Homo sapiens, Jurkat, 20 h, TNF 10 ng/mL, intracellular ATP level, read-out: Cellular IC50 (M) Jurkat (FADD−/−)

{"Compound": "CN1C(=O)[C@@H](NC(=O)c2ccnc(Nc3ccccc3)n2)COc2ccc3ncccc3c21 [RIP1-202]", "Experimental system": "Jurkat (FADD−/−) cells", "Censor symbol": ">", "IC50 / M": "2e-05"}
{"Compound": "CN1C(=O)[C@@H](NC(=O)c2cnc(Cc3ccccc3)o2)COc2cc3[nH]c(C(F)(F)F)nc3cc21 [RIP1-079]", "Experimental system": "Jurkat (FADD−/−) cells", "Censor symbol": ">", "IC50 / M": "2e-06"}
{"Compound": "CN1C(=O)[C@H](NC(=O)c2nnc(Cc3ccccc3)o2)COc2cc3c(ccn3C)cc21 [RIP1-081]", "Experimental system": "Jurkat (FADD−/−) cells", "Censor symbol": ">", "IC50 / M": "2e-06"}
{"Compound": "CN1C(=O)[C@@H](NC(=O)c2nnc(Cc3ccccc3F)[nH]2)COc2cc3ocnc3cc21 [RIP1-219]", "Experimental system": "Jurkat (FADD−/−) cells", "Censor symbol": "=", "IC50 / M": "6.75e-10"}
{"Compound": "CN1C(=O)[C@@H](NC(=O)c2cc(Oc3ccccc3)ccn2)COc2cc3ncoc3cc21 [RIP1-186]", "Experimental system": "Jurkat (FADD−/−) cells", "Censor symbol": "=", "IC50 / M": "7.52e-10"}
{"Compound": "CN1C(=O)[C@@H](NC(=O)c2cc(Cc3ccccc3)on2)COc2cc3[nH]ccc3cc21 [RIP1-116]", "Experimental system": "Jurkat (FADD−/−) cells", "Censor symbol": "=", "IC50 / M": "5.16e-09"}
{"Compound": "CN1C(=O)[C@@H](NC(=O)c2nnn(Cc3ccccc3)n2)COc2cc3nccnc3cc21 [RIP1-131]", "Experimental system": "Jurkat (FADD−/−) cells", "Censor symbol": "=", "IC50 / M": "1.29e-09"}
{"Compound": "CN1C(=O)[C@@H](NC(=O)c2nnc(Cc3ccccc3)[nH]2)COc2cc3[nH]nc(Cl)c3cc21 [RIP1-034]", "Experimental system": "Jurkat (FADD−/−) cells", "Censor symbol": "=", "IC50 / M": "8.9e-10"}
{"Compound": "CN1C(=O)[C@@H](NC(=O)c2noc(Cc3ccccc3)n2)COc2cc3[nH]nnc3cc21 [RIP1-140]", "Experimental system": "Jurkat (FADD−/−) cells", "Censor symbol": "=", "IC50 / M": "1.37e-09"}
{"Compound": "CN1C(=O)[C@@H](NC(=O)c2ncn(Cc3ccccc3)n2)CSc2ccc3ncccc3c21 [RIP1-093]", "Experimental system": "Jurkat (FADD−/−) cells", "Censor symbol": "=", "IC50 / M": "1.15e-09"}
{"Compound": "CN1C(=O)[C@@H](NC(=O)c2ncn(Cc3ccccc3)n2)CSc2cc3[nH]ccc3cc21 [RIP1-008]", "Experimental system": "Jurkat (FADD−/−) cells", "Censor symbol": "=", "IC50 / M": "2.4e-10"}
{"Compound": "CN1C(=O)[C@@H](NC(=O)c2cn(Cc3ccccc3)nn2)COc2cc3[nH]nnc3cc21 [RIP1-138]", "Experimental system": "Jurkat (FADD−/−) cells", "Censor symbol": "=", "IC50 / M": "1.68e-08"}
{"Compound": "CN1C(=O)[C@@H](NC(=O)c2cnn(Cc3ccccc3)c2)CSc2cc3c(ccn3Cc3ccccc3)cc21 [RIP1-083]", "Experimental system": "Jurkat (FADD−/−) cells", "Censor symbol": ">", "IC50 / M": "2e-06"}
{"Compound": "CN1C(=O)[C@@H](NC(=O)c2cn(Cc3ccccc3)cn2)CSc2cc3[nH]ccc3cc21 [RIP1-006]", "Experimental system": "Jurkat (FADD−/−) cells", "Censor symbol": "=", "IC50 / M": "1.25e-09"}
{"Compound": "CN1C(=O)[C@@H](NC(=O)c2ccnc(Oc3ccccc3)c2)COc2ccc3ncccc3c21 [RIP1-195]", "Experimental system": "Jurkat (FADD−/−) cells", "Censor symbol": "=", "IC50 / M": "5.66e-06"}
{"Compound": "CN1C(=O)[C@@H](NC(=O)c2cn(Cc3ccccc3)nn2)CSc2cc3c(ccn3C)cc21 [RIP1-048]", "Experimental system": "Jurkat (FADD−/−) cells", "Censor symbol": "=", "IC50 / M": "5.1e-09"}
